target: GABARAP, O95166; experiment: median log2 fold change of GCK-ALFA target abundance (FLAG IP / Myc IP barcode read proportion) (log2 ratio); each designed protein is fused to an ALFA-tag nanobody in HEK293 cells to bring the named protein to FLAG-tagged glucokinase (GCK); Myc marks an untargeted standard; higher = target protein stabilised (more abundant); settings: target protein: 3xFLAG-MCP-GCK-ALFA reporter; HEK293 landing pad (RPLP)
Sequence (O95166 whole entry, the tested form may be a part): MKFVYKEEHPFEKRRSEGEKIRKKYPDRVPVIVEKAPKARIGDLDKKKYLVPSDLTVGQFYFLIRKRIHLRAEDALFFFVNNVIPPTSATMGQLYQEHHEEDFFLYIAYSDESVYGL
Whole data set: some 4,500 sequences, median “median log2 fold change of GCK-ALFA target abundance (FLAG IP / Myc IP barcode read proportion)” near 0.078, cut for the lowest 2% near -0.6. The entries come from a sample that favours the lowest values as a whole.
MEASURED_ATTRIBUTE: median log2 fold change
I'd appreciate a reply containing only the number, no unit.

I would be grateful if you could share the reported median log2 fold change for GBRAP_160_4666 (protein) MEELEKLMKELEEIAKEAVEMTKGQSHEERVAIIRVMKGEIILELEESKIATDEVVDYADELGDELIAYVAANPDLTEEELQELLDKMLKEIEEKLKEEL .
-1.11

Would you mind telling me what median log2 fold change value was observed for GBRAP_160_4055 (protein) AEEKERLIADVDAAEAAILAVIDEEGAEAAAVMADGEFGAIIMEAAELPTASDELVDALEAIRDALVAGLRANAAASPAELKALVRAAAAAAKEAIKKHY ?
0.183

Any idea what its median log2 fold change is? The binder is GBRAP_184_5111 (protein) KLLEETIKANNKEELEKKLTEVVEKAVKEKADLLVIVEIPNLTPEMAEIIMDKVAKAKEAGIKNVLVEIVSDNLSDEVIDTIDKKAKEYGLTNVVLAMKE
0.326

I would be grateful if you could share the reported median log2 fold change for GBRAP_160_4081 (protein) SAAHEKLIKEVTEIFDEALKMMEGVTPAEAVAIALVALGEVALLIEEEEELSEEDKDKLLALVDAAEAEVRAAADATVAELKALLERHRDEIVAAIKALD .
0.134
